Recorded values, source the DeepSol protein solubility set.

assay: soluble on expression in E. coli; label from the status in PepcDB or PDB records
readout_name: soluble on expression in E. coli

sequence_text	readout_name	reported_result
MRDWVIPPISCPENEKGEFPKNLVQIKSNRDKETKVFYSITGQGADKPPVGVFIIERETGWLKVTQPLDREAIAKYILYSHAVSSNGEAVEDPMEIVITVTDQNDNRPEFTQEVFEGSVAEGAVPGTSVMKVSATDADDDVNTYNAAIAYTIVSQDPELPHKNMFTVNRDTGVISVLTSGLDRESYPTYTLVVQAADLQGEGLSTTAKAVITVKDINDNAPVFNPS	soluble on expression in E. coli	soluble
GPLGSPILELKEKIQPEILELIKQQRLNRLVEGTCFRKLNARRRQDKFWYCRLSPNHKVLHYGDLEESPQGEVPHDSLQDKLPVADIKAVVTGKDCPHMKEKGALKQNKEVLELAFSILYDSNCQLNFIAPDKHEYCIWTDGLNALLGK	soluble on expression in E. coli	soluble

----------
test: soluble on expression in E. coli; label from the status in PepcDB or PDB records

sequence_text	soluble on expression in E. coli
MEKYQALLANNVENTAKEALHQLAYTGREYNNIQDQIETISDLLGHSQSLYDYLREPSKANLTILENMWSSVARNQKLYKQIRFLDTSGTEKVRIKYDFKTSIAGPSLILRDKSAREYFKYAQSLDNEQISAWGIELERDKGELVYPLSPSLRILMPISVNDVRQGYLVLNVDIEYLSSLLNYSPVRDFHIELVKHKGFYIASPDESRLYGDIIPERSQFNFSNMYPDIWPRVVSEQAGYSYSGEHLIAFSSIKFVSNEPLHLIIDLSNEQLSKRATRDINDLIQESLEHHHHHH	soluble
RFEHSLGVYHLADRALAHLDISGTRADTVRAAALLHDIGHGPYGHQTEGIIQRRLDRHHDDVAHLVSNGEPGAVLAAHGLDPDRVAALVAGHGKLGQLVAGELDVDRMDYLVRD	soluble
PTARRDIRFAWSGDTAGQGWGIDDEGMRTYATMAQHQPDFFIHSGDTIYADGPMKDEVEKDGAVIWKNTTLIDEKRKVAETLAEFRGQWKYNLMDEHVQAMNALCPTFFQWDDHEVVNNWSDAKDLSADDRYTEKSVHVLQSRAARAFHEMTPLRITPAEPGRVYRKISYGPMLDVFFLDLRSYRGPNGASMEDEITDQSRILGAEQLAWIKRELAASTATWKVIASDMPIGLIVWDNWKEKAGAEAISNGDHGPAKGRELEIADLLRFIKSAGVRNTVWFTADVHYTAAHHYSPERAQFQDFDPFWEFVSGPLHAGTFGPNDLDRTFGPEVKFVKAPTPEQGVNLPPSMGLQFFGLVDIDAASQQMKVRLMDRGNTELWSVTLDPVLSAI	not soluble
MANPELLEEQREETRLIIEELLEDGSDPDALYTIEHHLSADDFETLEKAAVEAFKLGYEVTEPEELEVEEGDTVICCDILSECALNAELIDAQVEQLMNLAEKYDVEYDGWGTYFEDPNGEEGDDDDYVDEDDDGVRH	not soluble
AHHHHHHGSISETIRSGDWKGEKHVPVIEYEREGELVKVKVQVGKEIPHPNTTEHHIRYIELYFLPEGENFVYQVGRVEFTAHGESVNGPNTSDVYTEPIAYFVLKTKKKGKLYALSYCNIHGLWENEVTLE	soluble
MGSDKIHHHHHHVHHRHHKKGIIHRDADEMIEFPKRSNDRLGETMIHGQIICHGTPLDYVRPYLSSKKYPRVIINICVSDDGGWYRLTTGNMFDLEGSVTFTVRHQCLMDKLPPMIQCAVPYYTTEVTIDLSSNTTYIGRSFELSKMEAYSSADCLY	not soluble
MKAYTKYLTFNTKKRRELIRITDEVKKAVEESEVKEGLCLVSSMHLTSSVIIQDDEEGLHEDIWEWLEKLAPYRPDYKHHRTGEDNGDAHLKNLLTHLQVVLPITNGKLDLGPWQEIFYAEFDGQRPKRVVIKIIGE	soluble

----------
experiment: soluble on expression in E. coli; label from the status in PepcDB or PDB records
readout_name: soluble on expression in E. coli

sequence_text	reported_result
MIILKLEDSWGFQISKIAQEMDSQFSKKLTKYDIGSREYGILLTIHQYALLTQLKIGELNKVDRTTIGQLVDLLERKDFVARQKNPKDRRQNLLVLTKTGRSLAEEMWQEMKEIEKDVLKHLSAKQKETLLTMVKAIRKGELN	not soluble
ASHHLRMHFKTLPAGESLGSLGLWVWGDVDQPSKDWPNGAITMTKAKKDDYGYYLDVPLAAKHRQQVSYLINNKAGENLSKDQHISLLTPKMNEVWIDENYHAHAYRPLKEGYLRINYHNQSGHYDNLAVWTFKDVKTPTTDWPNGLDLSHKGHYGAYVDVPLKEGANEIGFLILDKSKTGDAIKVQPKDYLFKELDNHTQVFVKDTDPKVYNNPYYID	soluble
MDNHGILESLLFTAGDEGLDEKQLLEILDMSKDQLVELIENYSSHGLMIQRFGMTYVLTTKKEAATYIEQLIEQKSQMKLSQAAMEVLSIIAYNQPLSRSDIELIRSINSDGAVKTLIAKGLVEAKVVNEQRSQQLITTDLFLNVFGISNIEDLPTTEEDDEEMDAFFSNLVNQKGENND	not soluble
MPTPRRSGRVIVYTGDGKGKTTAALGLALRAVGRGMNVAVLQFLKSPERTYGEQLALERLGVDVRQLGAGFTWTKTPDIHREALKRAWAVAKEYVYSGRYDMIVLDELNNVLAIDRFPVEDIVSVSEVLELIRTRPPSLHLVITGRAARPELMAAADIVTEMKLIKHDYEQGRTAMKGIEF	soluble
MTIYEQHFIFSDRIVPIRVRENKYARRLILRIDARGREICVTTPPAINLYSIQGFIAKHQSWIEARLARVQIAHANSYLKEGTKIPLLGIPHTIQRKEGRGITEIVAGDVRQEPKIVVYGQLEYLPRRIADVLKKQAALIITPLVKCYARKVERKVKSICYKDTKSRWGSCSIHGNLSFSWRLVMAPQEVIEYVVAHEVAHLIEMNHGPKFWALCEKLCPKSEAYRTWLKENGHMLQAVNFHSYRLEI	not soluble
MGGDSVAIFTADMSVSGELRNDIELHLRRGIESDALRLVYLPEVDLRTGDIVGTEALVRWQHPTRGLLAPGCFIPVAESINLAGELDRWVLRRACNEFSEWQSAGLGHDALLRINVSAGQLVTGGFVDFVADTIGQHGLDASSVCLEITENVVVQDLHTARATLARLKEVGVHIAIDDFGTGYSAISLLQTLPIDTLKIDKTFVRQLGTNTSDLVIVRGIMTLAEGFQLDVVAEGVETEAAARILLDQRCYRAQGFLFSRPVPGEAMRHMLSARRLPPTCILEHHHHHH	not soluble
MSLDYANGNHVLIIPKYKGSLLFTKHKIRGIEFPGGKREKGEASETAAAREVFEETGATIKYCEYIAQYKVDRQIGMSFTKDVFMVEIEAITEQPDYFETDGPLLYKSLSEIPEDKKSYLLKDPAILQCLERVIELGFYSEGHHHHHH	not soluble
MKMDRQAQFRAREALIFEVAEQLLLENGEAGMTLDALAAELDLAKGTLYKHFQSKDELYMLLIVRNERMLLEMIQDKQKSFPEHLAFFMLHHLHHPERTVMFHQIEERLSTTGQGIYDLFQELYQVRKQRLRIIINMTEIYLQEIQSTMTVRDYLAAIWSLTHGAAAILNSSFYQRYLGSRDTLRIAYIDQALAIPKHMHEQYV	not soluble
MRNIQIALTKGRLEKHVIPLFEQIGIDCSELKNKGRKLVFQSKNTDISFILVKAVDVATYVEHGVADIGVVGKDILMENEKDIYEMLDLGVGVCKFCVASIPTYNPKSYRKKCIATKYPHITSNYFHNKGEDVEIIKIEGSVEIAPILGLADAIVDIVETGKTLQENGLIVFEEMYSISARMIVNKAALKTKKDEIFSIINMMEQEILSGK	not soluble
PKTGPTMTKELVFSSNIGQHDLDTKSKQIQQWIEKKYHVQVTIKRRKDAEQSEEETEEIFNQILQTMPDIATFSSRPKAIRGGTASMCVFRHLSKKEEK	soluble
MCTALSPKVRSGPGLSDMHQYSQWLASRHEANLLPMKEDLALWLTNLLGKEITAETFMEKLDNGALLCQLAETMQEKFKESMDANKPTKNLPLKKIPCKTSAPSGSFFARDNTANFLSWCRDLGVDETCLFESEGLVLHKQPREVCLCLLELGRIAARYGVEPPGLIKLEKEIEQEETLSAPSPSPSPSSKSSGKKSTGNLLDDAVKRISEDPPCKCPNKFCVERLSQGRYRVGEKILFIRMLHNKHVMVRVGGGWETFAGYLLKHDPCRMLQISRVDGKTSPIQSKSPTLKDMNPDNYLVVSASYKAKKEIKLEHHHHHH	not soluble
SSEELLKQALQQAQQLLQQAQELAKKGGGEELLKQALQQAQQLLQQAQELAKKGGGGEELLKQALQQAQQLLQQAQELAKKGGGEELLKQALQQAQQLLQQAQELAKK	soluble
MKTFPLQSLTIIEAQQKQFALVDSICRHFPGSEFLTGGDLGLTPGLNQPRVTQRVEQVLADAFHAQAAALVQGAGTGAIRAGLAALLKPGQRLLVHDAPVYPTTRVIIEQMGLTLITVDFNDLSALKQVVDEQQPDAALVQHTRQQPQDSYVLADVLATLRAAGVPALTDDNYAVMKVARIGCECGANVSTFSCFKLFGPEGVGAVVGDADVINRIRATLYSGGSQIQGAQALEVLRGLVFAPVMHAVQAGVSERLLALLNGGAVPEVKSAVIANAQSKVLIVEFHQPIAARVLEEAQKRGALPYPVGAESKYEIPPLFYRLSGTFRQANPQSEHCAIRINPNRSGEETVLRILRESIASI	soluble
MGSDKIHHHHHHMGKHTKFGSSDDEGETETSVAKRQKDEKKEKKKEKRDRSRSPHKERERSPKRDRHPEKNESRRHDDRDQERRRDYGRNDRRDDRRGDGSWKTDRNDRNDRRNDFQRRDDKNRLSAEEIAAQRKALWGNKKVAGESSSSNTTDTASSSSEPATGGKNEKLWSSAIAATGVDSSKANKFMRLMGVKNAPKPTDDSSRLSDEKNRQDKMLNDLEKQYAIARETTHMGRGTGFGFGH	not soluble
